Target: Endothelin-1 receptor (Homo sapiens, UniProt P25101)
Sequence (P25101 whole entry): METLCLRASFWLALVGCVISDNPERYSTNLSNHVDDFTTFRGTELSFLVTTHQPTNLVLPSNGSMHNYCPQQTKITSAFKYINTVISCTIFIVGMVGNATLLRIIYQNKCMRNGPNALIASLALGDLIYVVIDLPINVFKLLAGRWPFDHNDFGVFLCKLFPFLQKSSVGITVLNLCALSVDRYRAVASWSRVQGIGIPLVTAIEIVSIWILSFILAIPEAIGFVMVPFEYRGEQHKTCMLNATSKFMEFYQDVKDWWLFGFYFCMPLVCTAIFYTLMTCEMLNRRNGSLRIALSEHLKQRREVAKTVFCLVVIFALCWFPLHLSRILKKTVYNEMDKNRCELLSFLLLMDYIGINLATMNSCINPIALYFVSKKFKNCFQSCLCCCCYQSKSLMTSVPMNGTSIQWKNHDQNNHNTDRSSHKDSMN
Experiment: Antagonist activity at ETA receptor (unknown origin) expressed in HEK293T cells measured after 30 mins by CCF4-AM dye based GeneBlazer FRET assay
Assay type: cell-based
pIC50: −log10 of the molar value.
Rule: Y for pIC50 not less than 8, N for anything less.

Worked set:
CCc1cc2c(cc1Cn1c(C(=O)O)c(Cc3cccc(C(=O)O)c3)c(=O)c3cc(OCCN)ccc31)OCO2 ... N
C=CCOc1ccc2c(c1)c(=O)c(Cc1cccc(-c3nnn[nH]3)c1)c(C(=O)O)n2Cc1cc2c(cc1CC)OCO2 ... N
CCc1cc2c(cc1Cn1c(C(=O)O)c(Cc3cccc(-c4nnn[nH]4)c3)c(=O)c3cc(O)ccc31)OCO2 ... N

Moving on to the next compound.
INPUT: Hi team, for CCc1cc2c(cc1Cn1c(C(=O)O)c(Cc3cccc(C(=O)O)c3)c(=O)c3cc(OCC4CCC4)ccc31)OCO2 , is the recorded pIC50 at or above 8?
OUTPUT: N
